Test: Ocular tissue concentrations (aqueous humor, vitreous humor, iris, retina, choroid, cornea) after topical ocular, subcutaneous and intravitreal administration
Format: in vivo, New Zealand White rabbits
Conditions: New Zealand White, rabbit, iris, subcutaneous, 5 mg/kg/dose, TABLE 16: Iris, 1 hr, OS; free acid, subcutaneous 5 mg/kg/dose, Group 3; read-out: Iris Conc. (ng/g) OS
Protocol: To measure the concentration of Compound 1 in plasma and ocular tissues following topical ocular, subcutaneous, and intravitreal administration, New Zealand White rabbits were administered Compound 1, and plasma and ocular samples were collected at pre-determined time points. […] Ocular tissue samples from both eyes of each animal were collected and weights were recorded. Plasma and ocular tissue sample concentrations of Compound 1 were determined by LC-MS/MS. […]
Readout label: concentration at 1 h (ng/g)
Give the number; ng/g is assumed, so skip it.

Quick one: concentration at 1 h of COC(=O)N[C@@H](Cc1ccccc1)C(=O)N[C@@H](Cc1ccc(NS(=O)(=O)O)cc1)c1csc(-c2cccs2)n1 ?
47.6

====

Test: Ocular tissue concentrations (aqueous humor, vitreous humor, iris, retina, choroid, cornea) after topical ocular, subcutaneous and intravitreal administration
Type: in vivo, New Zealand White rabbits
Conditions: New Zealand White, rabbit, iris, topical, 1.2 mg/eye, topical ocular 1.2 mg/eye (~0.7 mg/kg/dose); 2 hr; read-out: Iris tissue Average
Counter-ions that a name gives are not always drawn.
Readout label: concentration at 2 h (ng/g)
Give the number; ng/g is assumed, so skip it.

Quick one: concentration at 2 h of COC(=O)N[C@@H](Cc1ccccc1)C(=O)N[C@@H](Cc1ccc(NS(=O)(=O)O)cc1)c1csc(-c2cccs2)n1 [Compound 1 sodium salt] ?
51.9

====

Test: Ocular tissue concentrations (aqueous humor, vitreous humor, iris, retina, choroid, cornea) after topical ocular, subcutaneous and intravitreal administration
Assay type: in vivo, New Zealand White rabbits
Conditions: New Zealand White, rabbit, cornea, other: intravitreal, 2.5 mg/eye, Cornea, 24 hr, right eye, intravitreal 2.5 mg/eye (group 5), individual animals; read-out: Conc. (ng/g) OD
Readout label: concentration at 24 hr (ng/g)
Give the number; ng/g is assumed, so skip it.

Quick one: concentration at 24 hr of COC(=O)N[C@@H](Cc1ccccc1)C(=O)N[C@@H](Cc1ccc(NS(=O)(=O)O)cc1)c1csc(-c2cccs2)n1 [Compound 1] ?
16700

====

Assay: Ocular tissue concentrations (aqueous humor, vitreous humor, iris, retina, choroid, cornea) after topical ocular, subcutaneous and intravitreal administration
Assay type: in vivo, New Zealand White rabbits
Settings: New Zealand White, rabbit, retina homogenate, other: intravitreal, 2.5 mg/eye, Retina homogenate, 48 hr, right eye, intravitreal 2.5 mg/eye (group 5), individual animals; read-out: Conc. (ng/mL) OD
Readout label: concentration at 48 h

Quick one: concentration at 48 h of COC(=O)N[C@@H](Cc1ccccc1)C(=O)N[C@@H](Cc1ccc(NS(=O)(=O)O)cc1)c1csc(-c2cccs2)n1 [Compound 1] ?
66700 ng/mL

====

Assay: Ocular tissue concentrations (aqueous humor, vitreous humor, iris, retina, choroid, cornea) after topical ocular, subcutaneous and intravitreal administration
Format: in vivo, New Zealand White rabbits
Conditions: New Zealand White, rabbit, cornea, subcutaneous, 5 mg/kg/dose, Cornea, 4 hr, OD; sodium salt, subcutaneous 5 mg/kg/dose, Group 2; read-out: Cornea Conc. (ng/g) OD
Readout label: concentration at 4 h (ng/g)
Give the number; ng/g is assumed, so skip it.

Quick one: concentration at 4 h of COC(=O)N[C@@H](Cc1ccccc1)C(=O)N[C@@H](Cc1ccc(NS(=O)(=O)O)cc1)c1csc(-c2cccs2)n1 ?
8.27
